tested on: Saccharomyces cerevisiae; assay: protein stability index of tFT-peptide fusion (C-terminal peptide) (PSI (0-1 scale)); higher = more stable (slower turnover); details: genetic background: wild type; temperature: 30 C
Listing: protein stability index of selected sequences
metric: protein stability index

>  <sequence_content>
KDEINYLNSKLK [SPA2 C-terminal 12 aa]

>  <test_value>
0.706

$$$$
>  <sequence_content>
FNISDYFSDIHE [ORC5 C-terminal 12 aa]

>  <test_value>
0.7

$$$$
>  <sequence_content>
IEERLVAIAEQD [SCL1 C-terminal 12 aa]

>  <test_value>
0.7

$$$$
>  <sequence_content>
FVFVNEFDVYTY [GPI12 C-terminal 12 aa]

>  <test_value>
0.704

$$$$
>  <sequence_content>
STSSLKRQRTDF [REX2 C-terminal 12 aa]

>  <test_value>
0.712

$$$$
>  <sequence_content>
FAFSFPITNVLE [YAL016C-B C-terminal 12 aa]

>  <test_value>
0.683

$$$$

====

Listing: protein stability index of selected sequences
tested on: Saccharomyces cerevisiae; assay: protein stability index of tFT-peptide fusion (C-terminal peptide) (PSI (0-1 scale)); higher = more stable (slower turnover); conditions: genetic background: wild type; temperature: 30 C
metric: protein stability index

>  <sequence_content>
LSTKNIDDGMIS [COG7 C-terminal 12 aa]

>  <metric>
protein stability index

>  <test_value>
0.679

$$$$
>  <sequence_content>
IEEMLEIISGYA [RPC17 C-terminal 12 aa]

>  <metric>
protein stability index

>  <test_value>
0.584

$$$$
>  <sequence_content>
RKFHVVDTSLFA [MOG1 C-terminal 12 aa]

>  <metric>
protein stability index

>  <test_value>
0.688

$$$$
>  <sequence_content>
RMHRRLPFPTLN [YJR142W C-terminal 12 aa]

>  <metric>
protein stability index

>  <test_value>
0.548

$$$$
>  <sequence_content>
APNSNSSSGSVS [YFL013W-A C-terminal 12 aa]

>  <metric>
protein stability index

>  <test_value>
0.66

$$$$
>  <sequence_content>
CTKHRFGYQNWI [ARP6 C-terminal 12 aa]

>  <metric>
protein stability index

>  <test_value>
0.692

$$$$
>  <sequence_content>
LKTTPCLTHWYN [YIR030W-A C-terminal 12 aa]

>  <metric>
protein stability index

>  <test_value>
0.663

$$$$
>  <sequence_content>
VGADSYAEEEEF [TUB1 C-terminal 12 aa]

>  <metric>
protein stability index

>  <test_value>
0.676

$$$$
>  <sequence_content>
LDLVARTATLSN [NUP84 C-terminal 12 aa]

>  <metric>
protein stability index

>  <test_value>
0.713

$$$$
>  <sequence_content>
GQVIDPLKAPFK [UTP14 C-terminal 12 aa]

>  <metric>
protein stability index

>  <test_value>
0.691

$$$$
>  <sequence_content>
IDEMYRGGISMN [AIM32 C-terminal 12 aa]

>  <metric>
protein stability index

>  <test_value>
0.69

$$$$
>  <sequence_content>
RAVSGVELRIYV [POP7 C-terminal 12 aa]

>  <metric>
protein stability index

>  <test_value>
0.641

$$$$

====

tested on: Saccharomyces cerevisiae; assay: protein stability index of tFT-peptide fusion (C-terminal peptide) (PSI (0-1 scale)); higher = more stable (slower turnover); details: genetic background: cdc53-1; temperature: 37 C
metric: protein stability index

>  <sequence_content>
FFFSFSFPFLSF

>  <test_value>
0.481

$$$$
>  <sequence_content>
NCMGLLMPLLIT

>  <test_value>
0.391

$$$$
>  <sequence_content>
LVLALTPFLHSF

>  <test_value>
0.701

$$$$
>  <sequence_content>
ALFVGVVLLVCW

>  <test_value>
0.193

$$$$
>  <sequence_content>
GCSVSLCCVFVV

>  <test_value>
0.503

$$$$
>  <sequence_content>
PFFSSLKYRRDH

>  <test_value>
0.751

$$$$
